- MEASUREMENT TARGET: T1, HTRA4, P83105
- T1 sequence (P83105 378-476, limits assumed, looked up): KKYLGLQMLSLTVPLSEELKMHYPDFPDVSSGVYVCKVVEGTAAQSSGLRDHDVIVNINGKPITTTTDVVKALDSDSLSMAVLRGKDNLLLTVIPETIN
- ASSAY PROTOCOL: holdup assay
- Parameters: key: below the threshold = too weak to quantify, mostly under pKd 3.1 to 4
- CONDITION LABEL: plain residues with an end cap or a label only (N-terminal biotin on a linker: ado-ado)
MEASURED PROPERTY: pKd
Answer with a number only.

# BINDER, pKd
records = [
    ("EVNETDDTKM [KCNJ1, P48048]", 4.14),
]

Record QGPVETESVV [SLC45A4, Q5BKX6] . Reported pKd: 3.97

Record PEYLGLDVPV [ERBB2, P04626] . Reported pKd: 3.98

Record GSGAVEMESV [AQP6, Q13520] . Reported pKd: 3.88

All figures here come from paper PMC9482650.
